Each record here notes measured solubility kinetic.
Conditions: buffer; pH 7.4; 200.0 µM

Some compounds with recorded solubility kinetic:
{"compound": "CCOC(=O)N1CCN(C(=O)c2ccc(S(=O)(=O)Nc3ccc(C)cc3)cc2)CC1", "value.reported": "> 64.7 µg/mL"}
{"compound": "CCOP(=O)(c1ccc(N(C)C)cc1)C(O)c1ccncc1 (stereo unspecified)", "value.reported": "> 48 µg/mL"}
{"compound": "C/C=C/C(=O)Nc1ccc(N2CCN(c3ccc(C(F)(F)F)cn3)CC2)nc1", "value.reported": "< 0.2 µg/mL"}
{"compound": "Cc1csc(NC(=O)CSc2nncc(=O)n2N)n1", "value.reported": "> 44.8 µg/mL"}
{"compound": "COc1c(Cl)ccc(Cl)c1C(=O)NC(=S)N1CCOCC1", "value.reported": "> 52.4 µg/mL"}

With those in mind, consider the next compound.
INPUT: Fill in: solubility kinetic of COC(=O)c1ccc(-c2ncc[nH]2)cc1 is ___
OUTPUT: > 30.3 µg/mL

---

Conditions: buffer; pH 7.4; 200.0 µM
measurement.kind: solubility kinetic

{"compound": "O=C1Nc2ccccc2C1C(C[N+](=O)[O-])c1ccccc1 (stereo not given)", "value.reported": "> 42.3 µg/mL"}
{"compound": "Cc1ccc(C(=O)NC(=S)N2CCCCCC2)cc1", "value.reported": "> 41.5 µg/mL"}

INPUT: Given the entry O=C(NNC(=O)c1ccncc1)Nc1cccc(C(F)(F)F)c1 , report its measured solubility kinetic.
OUTPUT: > 48.6 µg/mL

INPUT: Return reported solubility kinetic; argument: CN1CCN(c2ccccc2NC(=O)c2ccc(F)cc2)CC1
OUTPUT: > 47 µg/mL

---

Conditions: buffer; pH 7.4; 200.0 µM
The entries below are paired with their reported solubility kinetic.

Study these solved cases before continuing.
{"compound": "C=C(C)CCOC(=O)C(CC(=O)O)NCc1ccco1 (configuration not stated)", "measurement.kind": "solubility kinetic", "value.reported": "> 42.2 µg/mL"}
{"compound": "COC(=O)c1ccc(N2CCN(C(C)=O)CC2)c(NC(=O)c2cccnc2)c1", "measurement.kind": "solubility kinetic", "value.reported": "> 57.4 µg/mL"}
{"compound": "CNc1nc2c(N)ncnc2n1[C@H]1O[C@@H](CO)[C@H](O)[C@@H]1O", "measurement.kind": "solubility kinetic", "value.reported": "> 44.4 µg/mL"}
{"compound": "Cc1ccc(NC(=O)CN2C(=O)CNC2=O)cc1", "measurement.kind": "solubility kinetic", "value.reported": "> 37.1 µg/mL"}
{"compound": "COc1cc(Nc2ncnc(N)n2)cc(OC)c1OC", "measurement.kind": "solubility kinetic", "value.reported": "> 41.6 µg/mL"}
{"compound": "Cc1ccc(NC(=O)C2CC2)cc1S(=O)(=O)N1CCOCC1", "measurement.kind": "solubility kinetic", "value.reported": "> 48.7 µg/mL"}

// next entry
INPUT: Any idea what solubility kinetic was measured for Cc1ccc(-c2nc3ncccc3n2O)cc1 ?
OUTPUT: > 33.8 µg/mL

---

Conditions: buffer; pH 7.4; 200.0 µM
measurement.kind: solubility kinetic

Please review the following examples before continuing.
{"molecule": "C=C(C)COc1ccc(-c2ncncc2-c2ccc(Cl)cc2)c(O)c1", "measurement.kind": "solubility kinetic", "value.reported": "< 0.4 µg/mL"}
{"molecule": "COc1ccc(C)cc1S(=O)(=O)Nc1ccncc1", "measurement.kind": "solubility kinetic", "value.reported": "> 41.7 µg/mL"}
{"molecule": "Cc1nc(SCC(=O)NCC2CCCO2)c2c(C)c(C)sc2n1 (stereo not given)", "measurement.kind": "solubility kinetic", "value.reported": "> 52.7 µg/mL"}
{"molecule": "O=C(/C=C/c1c(F)cccc1Cl)NCc1ccc2c(c1)OCO2", "measurement.kind": "solubility kinetic", "value.reported": "< 0.7 µg/mL"}

INPUT: Reported solubility kinetic, molecule CCOC(=O)CCCNC(=O)CCNC(=O)c1ccc(OCC(C)C)cc1 : ____
OUTPUT: > 56.8 µg/mL

INPUT: Returns the measured solubility kinetic for the input molecule. Input: S=c1nc(-c2ccccc2)[nH]c2ccc(Br)cc12
OUTPUT: < 0.3 µg/mL

INPUT: Which value of solubility kinetic has been reported for CCOC(=O)Cc1csc(NC(=O)COc2ccc(C)cc2)n1 in the records?
OUTPUT: > 50.2 µg/mL

---

Settings: buffer; pH 7.4; 200.0 µM
// solubility kinetic lookup, one value per entry

// solved cases for solubility kinetic follow
{"compound": "Cn1c(=O)c([N+](=O)[O-])c(NCCCn2ccnc2)c2ccccc21", "solubility kinetic": "> 49.1 µg/mL"}
{"compound": "Cc1ccc(NC(=O)CCn2c(=S)oc3ccccc32)cc1F", "solubility kinetic": "< 0.4 µg/mL"}
{"compound": "O=c1[nH]c(=O)n(C2OC(CO)C(O)C2O)cc1Br (stereo not drawn)", "solubility kinetic": "> 48.5 µg/mL"}
{"compound": "COc1ccc(C(=O)Nc2ccc(CN3CCCCC3)cc2)cc1", "solubility kinetic": "> 48.7 µg/mL"}
{"compound": "CC(=O)NC1(c2ccccc2)CCN(CC(=O)N2CCC(C)CC2)CC1", "solubility kinetic": "> 53.6 µg/mL"}

INPUT: Endpoint output: solubility kinetic of OC(CCN1CCC2(CC1)OCCO2)C(F)(F)F (stereo not drawn) . Value?
OUTPUT: > 40.4 µg/mL

INPUT: Param item = O=C(NCCN1CCOCC1)c1ccc(Cl)nc1 ; retrieve measured solubility kinetic.
OUTPUT: > 40.5 µg/mL

INPUT: Tell me the measured solubility kinetic of Cc1cccc(NC(=O)c2cc3ccccc3oc2=O)c1 , please.
OUTPUT: < 0.6 µg/mL

---

Settings: buffer; pH 7.4; 200.0 µM
measurement.kind: solubility kinetic

INPUT: Field request: solubility kinetic | item: COCCN1CN=C(NS(=O)(=O)c2ccc(C)cc2)NC1
OUTPUT: > 46.9 µg/mL

---

Below, each of the molecules is paired with its reported solubility kinetic value.
Details: buffer; pH 7.4; 200.0 µM

Example molecules with recorded solubility kinetic:
{"molecule": "O=C(CCNC(=O)c1ccco1)Nc1ccccc1OC(F)F", "solubility kinetic": "> 48.6 µg/mL"}
{"molecule": "O=C(CSc1nnc(-c2ccncc2)o1)N1CCCC1", "solubility kinetic": "> 43.6 µg/mL"}

INPUT: Please look up its solubility kinetic: COc1ccc(C(=O)NC(C(=O)NCC2CCCO2)C(C)C)cc1 (stereo not drawn)
OUTPUT: > 50.2 µg/mL

---

Conditions: buffer; pH 7.4; 200.0 µM
measurement.kind: solubility kinetic

These solved cases illustrate the format of a correct answer.
{"smiles.code": "CC(C)NC(=O)COC(=O)c1ccccc1C(=O)c1ccccc1", "value.reported": "> 48.8 µg/mL"}
{"smiles.code": "Cc1nc2ccccn2c1C(=O)CSc1ccccc1", "value.reported": "> 42.4 µg/mL"}
{"smiles.code": "CC(=O)NCCc1ccc(C(=O)COC(=O)c2cc(C)oc2C)cc1", "value.reported": "> 51.5 µg/mL"}

Proceeding to the next molecule to report its solubility kinetic.
INPUT: Please look up its solubility kinetic: COC(=O)c1ccc(OCC(=O)NC2CCCCCCC2)cc1
OUTPUT: > 47.9 µg/mL

---

Conditions: buffer; pH 7.4; 200.0 µM
Below, each entry is listed with its recorded solubility kinetic.

Observe how each entry below is paired with its result.
{"molecule": "Cc1ncc(CSc2nccc(=O)[nH]2)c(CO)c1O", "solubility kinetic": "> 41.9 µg/mL"}
{"molecule": "O=C(NC1CCCCCCC1)c1cc(-c2ccccn2)nc2ccccc12", "solubility kinetic": "< 0.3 µg/mL"}
{"molecule": "COc1ccc(C)cc1S(=O)(=O)NCCN1CCOCC1", "solubility kinetic": "> 47.2 µg/mL"}

INPUT: State the recorded solubility kinetic for this entry: CCC(C)[C@H](NC(=O)NCCCOC(C)C)C(=O)OC (stereo partly specified)
OUTPUT: > 43.3 µg/mL

INPUT: State the recorded solubility kinetic for this entry: Cc1nc([N+](=O)[O-])c(C(=O)O)n1C
OUTPUT: > 27.8 µg/mL

---

Details: buffer; pH 7.4; 200.0 µM
measurement.kind: solubility kinetic

Worked cases, answers included:
{"molecule": "CCOC(=O)c1ccc(NC(=O)c2cccnc2)cc1", "solubility kinetic": "> 40.5 µg/mL"}
{"molecule": "COc1cccc(CN2CCc3[nH]c(=S)[nH]c(=O)c3C2)c1", "solubility kinetic": "> 45.5 µg/mL"}

INPUT: If you can, please state the reported solubility kinetic value of CC(OC(=O)CC1CC2CCC1C2)C(=O)Nc1ccc(C(N)=O)cc1 (stereo not given) .
OUTPUT: > 51.7 µg/mL

INPUT: Give the measured solubility kinetic of CS(=O)(=O)Nc1ccccc1NS(C)(=O)=O .
OUTPUT: > 39.6 µg/mL

INPUT: Entry under review: CCn1c(=O)n(CC)c2cc([N+](=O)[O-])c(N3CCNCC3)cc21 . Reported solubility kinetic?
OUTPUT: > 47.9 µg/mL
